Molecular target: the molecule itself
Assay: cross-linking; apo-proteins: 0.02% glutaric aldehyde, 16 h, 20 °C, protein 1 mg/mL, 20 mM Tricine-KOH pH 7.4, 50 mM KCl, 1 mM DTT, 1 mM EDTA; SDS-PAGE, Coomassie, densitometry; self-association
Task for the reader: assign each of the following proteins its reported Dimer 50 kDa, %.
Answers are plain numbers, in %.

Examples with answers:
>>> valuereported("human recoverin mutant E169A (natural protein, UniProt P35243 1-200, looked up, myristoylated (fraction of non-myristoylated forms did not exceed 16%), recoverin, human, UniProt P35243, C-terminal 'black' cluster mutant; Parent construct as m1; source: E. coli, expressed and purified similarly to the rWT protein (phenyl-Sepharose, Toyopearl SuperQ-650M)) MGNSKSGALSKEILEELQLNTKFSEEELCSWYQSFLKDCPTGRITQQQFQSIYAKFFPDTDPKAYAQHVFRSFDSNLDGTLDFKEYVIALHMTTAGKTNQKLEWAFSLYDVDGNGTISKNEVLEIVMAIFKMITPEDVKLLPDDENTPEKRAEKIWKYFGKNDDDKLTAKEFIEGTLANKEILRLIQFEPQKVKEKMKNA")
38.9
>>> valuereported("human recoverin mutant F35A (natural protein, UniProt P35243 1-200, looked up, myristoylated (fraction of non-myristoylated forms did not exceed 16%), recoverin, human, UniProt P35243, N-terminal 'black' cluster mutant; Parent construct as m1; source: E. coli, expressed and purified similarly to the rWT protein (phenyl-Sepharose, Toyopearl SuperQ-650M)) MGNSKSGALSKEILEELQLNTKFSEEELCSWYQSALKDCPTGRITQQQFQSIYAKFFPDTDPKAYAQHVFRSFDSNLDGTLDFKEYVIALHMTTAGKTNQKLEWAFSLYDVDGNGTISKNEVLEIVMAIFKMITPEDVKLLPDDENTPEKRAEKIWKYFGKNDDDKLTEKEFIEGTLANKEILRLIQFEPQKVKEKMKNA")
37.2
>>> valuereported("human recoverin mutant F49A (natural protein, UniProt P35243 1-200, looked up, myristoylated (fraction of non-myristoylated forms did not exceed 16%), recoverin, human, UniProt P35243, N-terminal 'gray' cluster mutant; Parent construct as m1; source: E. coli, expressed and purified similarly to the rWT protein (phenyl-Sepharose, Toyopearl SuperQ-650M)) MGNSKSGALSKEILEELQLNTKFSEEELCSWYQSFLKDCPTGRITQQQAQSIYAKFFPDTDPKAYAQHVFRSFDSNLDGTLDFKEYVIALHMTTAGKTNQKLEWAFSLYDVDGNGTISKNEVLEIVMAIFKMITPEDVKLLPDDENTPEKRAEKIWKYFGKNDDDKLTEKEFIEGTLANKEILRLIQFEPQKVKEKMKNA")
36.7
>>> valuereported("human recoverin mutant Q46A (natural protein, UniProt P35243 1-200, looked up, myristoylated (fraction of non-myristoylated forms did not exceed 16%), recoverin, human, UniProt P35243, N-terminal 'gray' cluster mutant; Parent construct as m1; source: E. coli, expressed and purified similarly to the rWT protein (phenyl-Sepharose, Toyopearl SuperQ-650M)) MGNSKSGALSKEILEELQLNTKFSEEELCSWYQSFLKDCPTGRITAQQFQSIYAKFFPDTDPKAYAQHVFRSFDSNLDGTLDFKEYVIALHMTTAGKTNQKLEWAFSLYDVDGNGTISKNEVLEIVMAIFKMITPEDVKLLPDDENTPEKRAEKIWKYFGKNDDDKLTEKEFIEGTLANKEILRLIQFEPQKVKEKMKNA")
35.1

// next item, Dimer 50 kDa, % requested
[ask] Record request: Dimer 50 kDa, % value, item human recoverin mutant Y86A (natural protein, UniProt P35243 1-200, looked up, myristoylated (fraction of non-myristoylated forms did not exceed 16%), recoverin, human, UniProt P35243, N-terminal 'black' cluster mutant; Parent construct as m1; source: E. coli, expressed and purified similarly to the rWT protein (phenyl-Sepharose, Toyopearl SuperQ-650M)) MGNSKSGALSKEILEELQLNTKFSEEELCSWYQSFLKDCPTGRITQQQFQSIYAKFFPDTDPKAYAQHVFRSFDSNLDGTLDFKEAVIALHMTTAGKTNQKLEWAFSLYDVDGNGTISKNEVLEIVMAIFKMITPEDVKLLPDDENTPEKRAEKIWKYFGKNDDDKLTEKEFIEGTLANKEILRLIQFEPQKVKEKMKNA
[reply] 30.7
